These measurements were taken from patent US8242159B2.

# Test system: Male Wistar rats
# ASSAY_TEXT: p-PCA-induced ejaculation in anesthetized rats (ejaculation-delaying effect)
# Assay type: in vivo, rat
# ASSAY_CONDITIONS: 50 mg/kg oral; p-PCA 5 mg/kg i.p.; mean ± standard deviation of responding rats
Response key: Yes means Latency: Time to display the ejaculatory response >= 1000 s; No means Latency: Time to display the ejaculatory response < 1000 s.

Is it the case that CN(C)CCC1(c2ccccc2)OCc2cc(C#N)ccc21.Cl (stereo not drawn) [Ex. 15] has Latency: Time to display the ejaculatory response reaching or exceeding 1000 s?
Yes

Say whether N#Cc1ccc2c(c1)COC2(CCCn1ccnc1)c1ccc(Cl)cc1 (stereo not drawn) [Ex. 61] shows Latency: Time to display the ejaculatory response of 1000 s or more.
No

Reported Latency: Time to display the ejaculatory response reaches at least 1000 s for COc1ccc(C2(CCn3cccn3)OCc3cc(C#N)ccc32)cc1 (stereo not drawn) [Ex. 10] ?
No

Could you verify whether the entry N#Cc1ccc2c(c1)COC2(CCn1cccn1)c1ccc(F)cc1 (stereo not drawn) [Ex. 59] shows Latency: Time to display the ejaculatory response of no less than 1000 s?
No

// inclusive: Latency: Time to display the ejaculatory response at least 1000 s? input: N#Cc1ccc2c(c1)COC2(CCCn1ccnc1)c1cccs1 (stereo not drawn) [Ex. 44]
No

Kindly determine if Latency: Time to display the ejaculatory response recorded for N#Cc1ccc2c(c1)COC2(CCn1ccnc1)c1cccs1 (stereo not drawn) [Ex. 47] is above or exactly 1000 s.
No

Decide: is the reported value of Latency: Time to display the ejaculatory response for Cl.N#Cc1ccc2c(c1)COC2(CCn1ccnc1)c1ccc(F)cc1 (stereo not drawn) [Ex. 56] equal to or greater than 1000 s?
No

# bool: Latency: Time to display the ejaculatory response of N#Cc1ccc2c(c1)COC2(CCCn1cccn1)c1cccs1 (stereo not drawn) [Ex. 49] >= 1000 s
No

Check if Latency: Time to display the ejaculatory response >= 1000 s (inclusive). Item: N#Cc1ccc2c(c1)COC2(CCn1cccn1)c1cccs1 (stereo not drawn) [Ex. 51]
Yes

Decide: Latency: Time to display the ejaculatory response of COc1ccc(C2(CCn3ccnc3)OCc3cc(C#N)ccc32)cc1 (stereo not drawn) [Ex. 6] >= 1000 s?
No

In plain terms: is recorded Latency: Time to display the ejaculatory response at least 1000 s for Cl.N#Cc1ccc2c(c1)COC2(CCn1cccn1)c1cccs1 (stereo not drawn) [Ex. 52] ?
No

// inclusive: Latency: Time to display the ejaculatory response at least 1000 s? input: Cc1ccc(C2(CCCN(C)C)OCc3cc(C#N)ccc32)cc1.Cl (stereo not drawn) [Ex. 23]
No

Given Cl.N#Cc1ccc2c(c1)COC2(CCn1cccn1)c1ccccc1 (stereo not drawn) [Ex. 21] , state whether its Latency: Time to display the ejaculatory response is at least 1000 s.
No

Is it the case that CN(C)CCC1(c2cccs2)OCc2cc(C#N)ccc21 (stereo not drawn) [Ex. 42] has Latency: Time to display the ejaculatory response reaching or exceeding 1000 s?
No

In plain terms: is recorded Latency: Time to display the ejaculatory response at least 1000 s for COc1ccc(C2(CCn3ccnc3)OCc3cc(C#N)ccc32)cc1.Cl (stereo not drawn) [Ex. 7] ?
No

Please tell me: is the molecule Cl.N#Cc1ccc2c(c1)COC2(CCCn1cccn1)c1ccc(Cl)cc1 (stereo not drawn) [Ex. 66] at or over 1000 s in terms of Latency: Time to display the ejaculatory response?
No

# check: Latency: Time to display the ejaculatory response of Cc1ccc(C2(CCn3ccnc3)OCc3cc(C#N)ccc32)cc1.Cl (stereo not drawn) [Ex. 29] is greater than or equal to 1000 s
Yes

Hi team, for N#Cc1ccc2c(c1)COC2(CCn1ccnc1)c1ccc(F)cc1 (stereo not drawn) [Ex. 55] , is the recorded Latency: Time to display the ejaculatory response at or above 1000 s?
Yes

Determine whether this molecule has Latency: Time to display the ejaculatory response no lower than 1000 s: N#Cc1ccc2c(c1)COC2(CCCn1ccnc1)c1ccccc1 (stereo not drawn) [Ex. 16]
No

Would you say Cc1ccc(C2(CCCN(C)C)OCc3cc(C#N)ccc32)cc1 (stereo not drawn) [Ex. 22] shows Latency: Time to display the ejaculatory response at minimum 1000 s?
No

Hi team, for CN(C)c1ccc(C2(CCCn3ccnc3)OCc3cc(C#N)ccc32)cc1 (stereo not drawn) [Ex. 37] , is the recorded Latency: Time to display the ejaculatory response at or above 1000 s?
No

Determine whether measured Latency: Time to display the ejaculatory response meets or exceeds 1000 s for Cl.N#Cc1ccc2c(c1)COC2(CCn1cccn1)c1ccc(Cl)cc1 (stereo not drawn) [Ex. 68]
No

Given Cc1ccc(C2(CCn3cccn3)OCc3cc(C#N)ccc32)cc1.Cl (stereo not drawn) [Ex. 33] , state whether its Latency: Time to display the ejaculatory response is at least 1000 s.
No

Quick check, Latency: Time to display the ejaculatory response >= 1000 s? N#Cc1ccc2c(c1)COC2(CCCn1ccnc1)c1cccs1.O=C(O)C(=O)O (stereo not drawn) [Ex. 45]
No

Given COc1ccc(C2(CCCN(C)C)OCc3cc(C#N)ccc32)cc1.Cl (stereo not drawn) [Ex. 3] , state whether its Latency: Time to display the ejaculatory response is at least 1000 s.
Yes

For this molecule, is measured Latency: Time to display the ejaculatory response 1000 s or higher? N#Cc1ccc2c(c1)COC2(CCn1ccnc1)c1ccccc1 (stereo not drawn) [Ex. 18]
No

For this molecule, is measured Latency: Time to display the ejaculatory response 1000 s or higher? Cl.N#Cc1ccc2c(c1)COC2(CCn1ccnc1)c1ccc(Cl)cc1 (stereo not drawn) [Ex. 64]
Yes

I'd appreciate it if you could say whether CN(C)CCCC1(c2ccc(N(C)C)cc2)OCc2cc(C#N)ccc21.Cl (stereo not drawn) [Ex. 36] has Latency: Time to display the ejaculatory response at least equal to 1000 s.
No

Check this molecule for Latency: Time to display the ejaculatory response at or above 1000 s: Cc1ccc(C2(CCCn3cccn3)OCc3cc(C#N)ccc32)cc1.Cl (stereo not drawn) [Ex. 31]
No

Identify whether the reported Latency: Time to display the ejaculatory response of the following molecule is 1000 s or greater: Cl.N#Cc1ccc2c(c1)COC2(CCn1ccnc1)c1cccs1 (stereo not drawn) [Ex. 48]
No

Assess whether reported Latency: Time to display the ejaculatory response for Cc1ccc(C2(CCN(C)C)OCc3cc(C#N)ccc32)cc1.Cl (stereo not drawn) [Ex. 25] sits at 1000 s or higher.
No

Is Latency: Time to display the ejaculatory response for Cl.N#Cc1ccc2c(c1)COC2(CCCn1ccnc1)c1ccc(F)cc1 (stereo not drawn) [Ex. 54] at or above 1000 s?
Yes

Could you verify whether the entry N#Cc1ccc2c(c1)COC2(CCn1ccnc1)c1ccc(Cl)cc1 (stereo not drawn) [Ex. 63] shows Latency: Time to display the ejaculatory response of no less than 1000 s?
No
